Data credit: patent EP0444659B1

- Assay name: solubility of FK 506 in nonaqueous solvents
- Assay type: physicochemical
- Settings: Solvent PEG 400; ambient temperature
Metric: solubility

Sample C=CCC1C=C(C)CC(C)CC(OC)C2OC(O)(C(=O)C(=O)N3CCCCC3C(=O)OC(C(C)=CC3CCC(O)C(OC)C3)C(C)C(O)CC1=O)C(C)CC2OC (stereo not shown) [FK 506] — what was its solubility?
> 40 mg/mL

###

- Assay name: physchem
- Type: physicochemical
- Settings: hco-60 10 w/v% aqueous, solubility of FK506
Metric: solubility (mg/mL)
Give the quantity in mg/mL, number only.

Sample C=CCC1C=C(C)CC(C)CC(OC)C2OC(O)(C(=O)C(=O)N3CCCCC3C(=O)OC(C(C)=CC3CCC(O)C(OC)C3)C(C)C(O)CC1=O)C(C)CC2OC (stereo not shown) [FK 506] — what was its solubility?
0.61

###

- Assay name: physchem
- Assay type: physicochemical
- Settings: hco-60/hco-10 (4:1) 5 w/v%, solubility of FK506
Metric: solubility

Sample C=CCC1C=C(C)CC(C)CC(OC)C2OC(O)(C(=O)C(=O)N3CCCCC3C(=O)OC(C(C)=CC3CCC(O)C(OC)C3)C(C)C(O)CC1=O)C(C)CC2OC (stereo not shown) — what was its solubility?
0.26 mg/mL
